B1: DLC1 (parent)
chain: HVTHWMGQPFNSDDRNTACHHGLV

variants of: B1; assay: protein stability index of a GFP-peptide fusion (GPS, HEK-293T) (PSI 1-6); higher = more stable; details: c terminus: a fixed tail appended;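 further: lentivirally expressed fusions sorted by FACS into six bins by GFP to DsRed ratio, PSI derived from sequencing read proportions per bin multiplied by bin number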
Measurement Type: protein stability index
Enter a number only.

Determine its reported protein stability index: `H1C` 2.04

Determine its reported protein stability index: `R15D` 2.23

Determine its reported protein stability index: `R15F` 2.25

Determine its reported protein stability index: `G7Y` 1.88

Determine its reported protein stability index: `H1P` 3.08

Determine its reported protein stability index: `V2K` 2.65

Determine its reported protein stability index: `H21F` 1.64

Determine its reported protein stability index: `H4L` 1.7

Determine its reported protein stability index: `V2N` 3.11

Determine its reported protein stability index: `N16D` 2.35

Determine its reported protein stability index: `D14G` 1.86

Determine its reported protein stability index: `N11S` 1.69

Determine its reported protein stability index: `P9T` 2.29

Determine its reported protein stability index: `T17P` 2.17

Determine its reported protein stability index: `G22D` 2.29

Determine its reported protein stability index: `V24E` 2.5

Determine its reported protein stability index: `G22W` 2.38

Determine its reported protein stability index: `S12R` 2.01
